Reported pIC50 values are given for each entry in this list.
Target: CGRP receptor (Homo sapiens, UniProt O60894+Q16602)
Sequence (Q16602 23-461): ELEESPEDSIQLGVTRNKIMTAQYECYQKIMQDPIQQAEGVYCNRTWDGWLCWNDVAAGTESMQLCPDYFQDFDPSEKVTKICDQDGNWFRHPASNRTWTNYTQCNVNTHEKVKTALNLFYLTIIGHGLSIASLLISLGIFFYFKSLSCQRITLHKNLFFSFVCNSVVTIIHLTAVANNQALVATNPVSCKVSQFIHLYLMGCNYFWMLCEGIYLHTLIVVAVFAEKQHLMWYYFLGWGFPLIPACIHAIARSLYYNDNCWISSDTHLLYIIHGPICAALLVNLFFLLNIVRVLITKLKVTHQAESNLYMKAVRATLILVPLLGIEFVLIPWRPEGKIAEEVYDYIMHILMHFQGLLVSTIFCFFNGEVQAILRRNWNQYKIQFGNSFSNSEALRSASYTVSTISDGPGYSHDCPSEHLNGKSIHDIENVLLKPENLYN
Sequence (O60894 27-148): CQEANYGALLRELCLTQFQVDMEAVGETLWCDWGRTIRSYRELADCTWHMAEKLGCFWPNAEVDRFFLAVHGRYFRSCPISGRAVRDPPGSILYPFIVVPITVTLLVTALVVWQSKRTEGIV
Experiment: CGRP Binding Assay ([125I]-CGRP radioligand displacement, SK-N-MC homogenate)
Parameters: endogenous in cells; host or cells: SK-N-MC cells (membrane homogenate)
Conditions: Table 2, displacement of [125I]-CGRP
pIC50: −log10 of the molar value.

Molecule	pIC50
CC(C)(C)CN1Cc2c(ccc3[nH]ncc23)C[C@@H](CC(=O)N2CCC(n3cc(-c4ccccc4)[nH]c3=O)CC2)C1=O	7.00 to 8.00
O=C1Nc2ccccc2CC1N1CCN(C(=O)C[C@@H]2Cc3ccc4[nH]ncc4c3CN(Cc3ccccc3)C2=O)CC1 (stereo partly drawn)	6.00 to 7.00
O=C(C[C@@H]1Cc2cc(Br)c3[nH]ncc3c2CN(CC2CC2)C1=O)N1CCC(c2cc3ccccc3[nH]c2=O)CC1	8.00 to 10.00

---

Biological target: CGRP receptor (Homo sapiens, UniProt O60894+Q16602)
Assay: CGRP Binding Assay ([125I]-CGRP radioligand displacement, SK-N-MC homogenate)
Parameters: endogenous in cells; host or cells: SK-N-MC cells (membrane homogenate)
Conditions: Table 2, displacement of [125I]-CGRP
pIC50: −log10 of the molar value.
Test readout: pIC50

Compound	Result
O=C1NCCC2(CCN(C(=O)N[C@@H]3Cc4ccc5[nH]ncc5c4CN(Cc4ccc(C(F)(F)F)cc4)C3=O)CC2)N1	6.00 to 7.00
O=C(C[C@@H]1Cc2cc(Cl)c3[nH]ncc3c2CN(Cc2cccnc2)C1=O)N1CCC(c2cc(-c3ccccc3)[nH]n2)CC1	7.00 to 8.00
CC(C)(C)CN1Cc2c(ccc3[nH]ncc23)C[C@@H](CC(=O)N2CCC(N3Cc4ccccc4CC3=O)CC2)C1=O	6.00 to 7.00
CC(C)(C)CN1Cc2c(ccc3[nH]ncc23)C[C@@H](CC(=O)N2CCC(N3Cc4ccccc4NC3=O)CC2)C1=O	7.00 to 8.00
O=C1Nc2ccccc2C2(CCN(C(=O)NC3Cc4ccc5[nH]ncc5c4CN(CCc4ccncc4)C3=O)CC2)N1 (stereo not shown)	6.00 to 7.00
CC(C)(C)CN1Cc2c(cc(Cl)c3[nH]ncc23)C[C@@H](CC(=O)Nc2ccc3c(c2)CC2(C3)NC(=O)NC2=O)C1=O (stereo partly shown)	7.00 to 8.00
COCCN1Cc2c(cc(Br)c3[nH]ncc23)C[C@@H](CC(=O)N2CCC(c3cc4cccc(F)c4[nH]c3=O)CC2)C1=O	7.00 to 8.00

---

Target: CGRP receptor (Homo sapiens, UniProt O60894+Q16602)
Test: Cyclic AMP Functional Antagonism Assay
Format: cell-based
Parameters: cells that endogenously express the human CGRP receptor; endogenous in cells; host or cells: SK-N-MC cells
Conditions: Table 2; SK-N-MC cells, 0.3 nM CGRP, 30 min; read-out: cAMP Function IC50
Procedure: Cyclic AMP Functional Antagonism Assay. Antagonism of the compounds of invention was determined by measuring the formation of cyclic AMP (adenosine 3′5′-cyclic monophosphate) in SK—N-MC cells that endogenously express the human CGRP receptor. […] Cyclic AMP was extracted using the lysis reagent and its concentration was determined by radioimmunoassay using RPA559 cAMP SPA Direct Screening Assay Kit (Amersham Pharmacia Biotech). IC50 values were calculated using Excel fit.
Test readout: IC50

Compound	Test readout	Result
CC(C)(C)CN1Cc2c(ccc3[nH]ncc23)C[C@@H](CC(=O)N2CCC(n3cc(-c4ccccc4)[nH]c3=O)CC2)C1=O	IC50	10 to 100 nM
CC(C)(C)CN1Cc2c(ccc3[nH]ncc23)C[C@@H](CC(=O)N2CCC(N3Cc4ccccc4NC3=O)CC2)C1=O	IC50	0.1 to 10 nM
O=C(NC1Cc2ccc3[nH]ncc3c2CN(CCc2ccncc2)C1=O)N1CCC(N2Cc3ccccc3NC2=O)CC1 (stereo not drawn)	IC50	0.1 to 10 nM

---

Reported IC50 values are given for each entry in this list.
Molecular target: CGRP receptor (Homo sapiens, UniProt O60894+Q16602)
Test: CGRP Binding Assay ([125I]-CGRP radioligand displacement, SK-N-MC homogenate)
Parameters: endogenous in cells; host or cells: SK-N-MC cells (membrane homogenate)
Conditions: Table 2, displacement of [125I]-CGRP
Test readout: IC50

Compound	Result
CC(C)(C)CN1Cc2c(ccc3[nH]ncc23)C[C@@H](NC(=O)N2CCC3(CC2)CNC(=O)c2ccccc23)C1=O	> 1000 nM
O=C(N[C@@H]1Cc2ccc3[nH]ncc3c2CN(CCN2CCOCC2)C1=O)N1CCC(N2Cc3ccccc3NC2=O)CC1	10 to 100 nM
CC(C)(C)CN1Cc2c(cc(Cl)c3[nH]ncc23)C[C@@H](CC(=O)N2CCC(N3C(=O)CN(c4ccccc4)C3=O)CC2)C1=O	10 to 100 nM
CC(C)(C)CN1Cc2c(cc(Cl)c3[nH]ncc23)C[C@@H](CC(=O)Nc2ccc3c(c2)CCC2(C3)NC(=O)NC2=O)C1=O (stereo partly shown)	0.1 to 10 nM
CC(C)(C)CN1Cc2c(cc(Cl)c3[nH]ncc23)C[C@@H](CC(=O)N2CCC(c3cc4ccccc4c[n+]3[O-])CC2)C1=O	10 to 100 nM
O=C1Nc2ccccc2CC1C1CCN(C(=O)C[C@@H]2Cc3ccc4[nH]ncc4c3CN(Cc3ccccc3)C2=O)CC1 (stereo partly shown)	100 to 1000 nM
O=C(NC1Cc2ccc3[nH]ncc3c2CN(CCc2ccncc2)C1=O)N1CCC(N2Cc3ccccc3NC2=O)CC1 (stereo not shown)	0.1 to 10 nM
